B1: HDV Ribozyme (parent)
chain: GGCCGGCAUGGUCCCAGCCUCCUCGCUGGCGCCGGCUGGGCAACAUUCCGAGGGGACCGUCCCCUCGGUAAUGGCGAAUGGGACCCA

- Variants of: B1
- experimentalDetails: self-cleavage, relative activity (ratio to wild type); higher = more cleavage; co-transcriptional
valueKind: self-cleavage
Give the value as a plain number.

GGCAGGCAUGGUCCCAGCCUCCUCGCUGGCGCCGGCUGGGCCACAUUCCGAGGGGACCGUCCCCUCGGUAAUGGCGAAUGGGACCCA [C4A A42C]; 0.0332
GGCCGGCACGGUCCCAGCCUCCUCGCUGGCGCCGGCUGGGCAACAUUCCGAGGGGACCGUCCCCUCGGUAAUGGAGAAUGGGACCCA [U9C C75A]; 0.115
GGCCGGCAUGGUCCCAGACUCCUCGCUGGCGCCGGCUGGGCAACAUUCCGAGGGGACCGUCCCCUCGGUAAUUGCGAAUGGGACCCA [C18A G73U]; 0.0941
GGCCGGCAUGGUCCCAGCCUCCUCGCUGGCGCCGGCUGGGCAAAAUUCCUAGGGGACCGUCCCCUCGGUAAUGGCGAAUGGGACCCA [C44A G50U]; 0.594
GGCCGGCAUCGUCCCAGCCUCCUCGCUGGCGCCGGCUGGGCAACAUUCCAAGGGGACCGUCCCCUCGGUAAUGGCGAAUGGGACCCA [G10C G50A]; 0.997

Looking up GGCCUGCAUGGUCCCAGCCUCCUCGCUGGCGCCGGCUGGGCAACAUUCCGAGGGGACCGUCCCCUCGGUAAUGGCGAAUGCGACCCA [G5U G81C] , I see its self-cleavage listed as 0

Entry GGCCGGCAUGGUCCCAGCCUCCUCGCUGGCGCCGGCUGGGCAACAUUCCGAGGGGACCGUCCCCUAGGAAAUGGCGAAUGGGACCCA [C66A U69A] — recorded self-cleavage = 1.16
